Tested on: AR mRNA
Experiment: Dose-dependent antisense inhibition of human AR in HuVEC cells (electroporation, qRT-PCR RTS3559, IC50)
Assay type: cell-based
Conditions: Table 36; 750.0 nM, HuVEC, electroporation, approximately 16 hours
Oligonucleotides are written 5' to 3', each unit as a sugar letter and its base; * is a phosphorothioate linkage, no mark a phosphodiester; rarer units and linkages stand in square brackets, end groups in braces. Plain capitals give the bases only. k = constrained ethyl (cEt); [5mC] = 5-methylcytosine; d = 2'-deoxy (DNA)
Parameter Measured: percent inhibition of AR, 750.0 nM

* 584269 (k[5mC]*k[5mC]*kT*dT*dA*dT*dG*dG*dA*dT*dG*d[5mC]*dT*kG*k[5mC]*kT) [compound 584269] | 69%
* 584242 (k[5mC]*k[5mC]*kA*dT*dT*dT*dG*dT*dG*d[5mC]*d[5mC]*dA*dA*kA*k[5mC]*k[5mC]; antisense) [compound 584242] | 66%
* 584157 (kT*kT*kG*dA*dT*dG*dG*dA*dA*dT*dG*d[5mC]*dT*kG*kA*kT; antisense) [compound 584157] | 52%
* 549458 (kG*kT*kT*dG*dA*dT*dT*dT*dA*dA*dT*dG*dG*kT*kT*kG) [compound 549458] | 83%
* 584495 (kA*kT*kG*dG*dT*dT*dG*dT*d[5mC]*d[5mC]*dT*dG*dT*kA*k[5mC]*kA; antisense) [compound 584495] | 55%
* 584468 (k[5mC]*kA*kT*dT*dG*dT*dA*d[5mC]*dT*dA*dT*dG*d[5mC]*k[5mC]*kA*kG) [compound 584468] | 60%
* 584168 (k[5mC]*kT*kG*dA*dT*dT*dA*dG*d[5mC]*dT*dA*dT*dG*kA*k[5mC]*k[5mC]; antisense) [compound 584168] | 70%
* 584263 (kT*kA*kG*dG*dG*dT*dT*dT*dG*dG*dT*d[5mC]*dA*kG*kA*kA; antisense) [compound 584263] | 67%
* 584274 (kG*kT*kT*dA*dT*d[5mC]*dT*dT*dA*d[5mC]*dT*d[5mC]*dT*k[5mC]*k[5mC]*k[5mC]; antisense) [compound 584274] | 74%
* 584158 (kG*kG*kT*dT*dA*dA*d[5mC]*dT*dT*dT*d[5mC]*dT*d[5mC]*kT*kG*kA; antisense) [compound 584158] | 70%
* 584165 (kT*k[5mC]*kA*dA*dT*d[5mC]*dT*dA*dG*dA*dT*dA*d[5mC]*k[5mC]*kA*kT; antisense) [compound 584165] | 66%

###

System: AR mRNA
Assay: Dose-dependent antisense inhibition of human AR in HuVEC cells (electroporation, qRT-PCR RTS3559, IC50)
Format: cell-based
Details: 31.25 nM; HuVEC, ~16 h; Table 14
Oligonucleotides are written 5' to 3', each unit as a sugar letter and its base; * is a phosphorothioate linkage, no mark a phosphodiester; rarer units and linkages stand in square brackets, end groups in braces. Plain capitals give the bases only. e = 2'-O-(2-methoxyethyl) (MOE); k = constrained ethyl (cEt); [5mC] = 5-methylcytosine; d = 2'-deoxy (DNA)
Outcome label depends on percent inhibition of AR relative to 10%: at/above gives Fulfilled, below gives Not fulfilled.

• 549372 (kA*kA*kG*dT*dT*dG*dT*dA*dG*dT*dA*dG*dT*k[5mC]*kG*k[5mC]) [compound 549372] = Not fulfilled
• 569220 (antisense eA*kT*kG*kG*dT*dT*dG*dA*dT*dT*dT*dA*kA*kT*kG*eG) [compound 569220] = Fulfilled
• 569229 (antisense eG*eT*kT*kG*kA*dT*dT*dT*dA*dA*dT*dG*kG*kT*kT*eG) [compound 569229] = Fulfilled
• 560132 (antisense kG*kT*kT*dG*dA*dT*dT*dT*dA*dA*dT*dG*kG*kT*kT*eG) [compound 560132] = Not fulfilled
• 569215 (antisense kT*kG*kG*dT*dT*dG*dA*dT*dT*dT*dA*dA*kT*kG*kG*eT) [compound 569215] = Fulfilled
• 569223 (antisense eG*eT*kT*kG*kA*dT*dT*dT*dA*dA*dT*dG*dG*kT*kT*kG) [compound 569223] = Fulfilled
• 569227 (antisense eT*eG*kA*kT*kT*dT*dA*dA*dT*dG*dG*dT*kT*kG*k[5mC]*eA) [compound 569227] = Fulfilled
• 560133 (antisense kA*kT*kG*dG*dT*dT*dG*dA*dT*dT*dT*dA*kA*kT*kG*eG) [compound 560133] = Fulfilled
• 569238 (antisense eG*kT*kT*kG*dA*dT*dT*dT*dA*dA*dT*kG*kG*kT*eT*eG) [compound 569238] = Not fulfilled
• 549458 (kG*kT*kT*dG*dA*dT*dT*dT*dA*dA*dT*dG*dG*kT*kT*kG) [compound 549458] = Not fulfilled
